# measurement.description: Half life in iv dosed rat
# Type: ADME, organism-based
# measurement.setup: in vivo
Please provide measured half-life for the entries that follow.
Give bare numbers, in h.

What measured half-life goes with COc1cccc(C(=O)NC2CC3CCC(C2)N3c2ccc(C(=O)NCc3ccc(N4CCN(C)CC4)cc3)cn2)c1C (configuration not stated) ?
6.5

// next entry
Reported half-life, compound COc1cccc(C(=O)NC2CC3CCC(C2)N3c2ccc(C(=O)N[C@@H](C)c3ccc(N4CCN(C)CC4)cc3)cn2)c1C (some centres not stated) : ____
6.4

* * *

Give log10 solubility kinetic for every item shown.
# measurement.description: Kinetic solubility of the compound
# Type: physicochemical
# measurement.setup: read-out: Kinetic_solubility
Values reflect log10 of reported solubility kinetic (µM).

Worked examples, 3 molecules total:
Name the reported log10 solubility kinetic value associated with the molecule COc1cccc(C(=O)NC2CC3CCC(C2)N3c2ccc(C(=O)NCc3ccccc3)cn2)c1C (stereo not given)
0.61

Also COc1cccc(C(=O)NC2CC3CCC(C2)N3c2ccc(C(N)=O)cn2)c1C (stereo not given) , if possible.
2.67

Field entry: COc1cccc(C(=O)NC2CC3CCC(C2)N3c2ccc(C(=O)N[C@@H](C)c3ccccc3)cn2)c1C (stereo not given in full)
0.34

# batch size: 2; output log10 solubility kinetic per entry
1. COc1cccc(C(=O)NC2CC3CCC(C2)N3c2ccc(C(=O)NCc3ccc(N4CCN(C)CC4)cc3)cn2)c1C (stereo not given)
2. COc1cccc(C(=O)NC2CC3CCC(C2)N3c2ccc(C(=O)N[C@@H](C)c3ccc(N4CCN(C)CC4)cc3)cn2)c1C (stereo not given in full)

2.45
2.65
